The measurements presented in this section are drawn from patent US20250313560A1.

# Hepatic clearance - QH[%] in human hepatocytes per entry
Test system: human hepatocytes
Experiment: Metabolic stability in human hepatocytes
Conditions: 1 μM test compound, 50% human serum, percentage of liver blood flow
Answer shape: numeric part, then the unit.

Cc1nc2c(N3CCC4(CCCN4)CC3)cc(C(=O)N[C@H](C)c3cccc(C(F)(F)F)c3F)cn2n1 [Example E78]
5%
C[C@@H](NC(=O)c1cc(N2CCC(NC3COCC3O)CC2)c2ncnn2c1)c1cccc(C(F)(F)F)c1F (single isomer, unassigned) [Example trans-E42a]
18%

// next entry
Ask: Read the entry C[C@@H](NC(=O)c1cc(N2CCC(NC3COCC3O)CC2)c2ncnn2c1)c1cccc(C(F)F)c1F (single isomer, unassigned) [Example cis-E16a] and write its reported Hepatic clearance - QH[%] in human hepatocytes.
Reply: 32%

###

# inhibition at 30 min per entry
Target: UniProt:P08684
Sequence (P08684 whole entry): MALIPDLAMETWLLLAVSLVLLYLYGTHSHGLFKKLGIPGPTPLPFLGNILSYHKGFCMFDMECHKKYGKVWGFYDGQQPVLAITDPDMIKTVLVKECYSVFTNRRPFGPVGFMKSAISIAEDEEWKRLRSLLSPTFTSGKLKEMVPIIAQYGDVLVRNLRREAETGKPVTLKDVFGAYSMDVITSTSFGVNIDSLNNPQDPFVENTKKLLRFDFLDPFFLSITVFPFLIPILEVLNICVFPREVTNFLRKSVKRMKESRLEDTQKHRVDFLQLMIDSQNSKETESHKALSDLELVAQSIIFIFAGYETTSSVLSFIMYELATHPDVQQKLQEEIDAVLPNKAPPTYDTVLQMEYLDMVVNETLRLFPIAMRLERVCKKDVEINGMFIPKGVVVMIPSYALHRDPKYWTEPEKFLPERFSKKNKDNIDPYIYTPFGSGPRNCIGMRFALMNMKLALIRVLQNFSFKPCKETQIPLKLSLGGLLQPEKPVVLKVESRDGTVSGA
Test: Mechanism-based inhibition of CYP3A4 assay (MBI 3A4)
Assay type: in vitro ADME
Details: human, human liver microsomes, probe midazolam 15 μM (hydroxy-midazolam formation), midazolam substrate, hydroxy-midazolam formation after 30 min preincubation relative to 0 min, read-out: MBI inhibition % ctrl. [%] with MDZ
# value in %; strip the unit string

Ask: Read the entry Cc1nc2c([C@H]3CC[C@H](N4CCCC4)CC3)cc(C(=O)N[C@H](C)c3cccc(C(F)F)c3F)cn2n1 and write its reported inhibition at 30 min.
Reply: 103

###

Target: UniProt P08684
Assay: Mechanism-based inhibition of CYP3A4 assay (MBI 3A4)
Format: in vitro ADME
Settings: human, human liver microsomes, probe midazolam 15 μM (hydroxy-midazolam formation), midazolam substrate, hydroxy-midazolam formation after 30 min preincubation relative to 0 min, read-out: MBI inhibition % ctrl. [%] with MDZ
Reported property: inhibition at 30 min (%)
# value in %; strip the unit string

C[C@@H](NC(=O)c1cc([C@H]2CC[C@H](N3CCC[C@@H](O)C3)CC2)c2ncnn2c1)c1cccc(C(F)(F)F)c1F
91

Ask: Read the entry C[C@H](CO)NC1CCN(c2cc(C(=O)N[C@H](C)c3cccc(C(F)(F)F)c3F)cn3ncnc23)CC1 and write its reported inhibition at 30 min.
Reply: 85

Ask: Read the entry C[C@@H](NC(=O)c1cc(N2CCC(N3CCC(O)C(C)(O)C3)CC2)c2ncnn2c1)c1cccc(C(F)(F)F)c1F (stereo partly drawn) [Example cis-E29] and write its reported inhibition at 30 min.
Reply: 95

Ask: Read the entry C[C@@H](NC(=O)c1cc(N2CCC(N3CCC[C@H]3CO)CC2)c2ncnn2c1)c1cccc(C(F)(F)F)c1F and write its reported inhibition at 30 min.
Reply: 91

Ask: Read the entry C[C@@H](NC(=O)c1cc(N2CCC3(CCCN3C)CC2)c2nncn2c1)c1cccc(C(F)(F)F)c1F and write its reported inhibition at 30 min.
Reply: 88

Ask: Read the entry C[C@@H](NC(=O)c1cc(C2=CCC(N3CCC[C@H](O)C3)CC2)c2ncnn2c1)c1cccc(C(F)F)c1F (stereo partly shown) and write its reported inhibition at 30 min.
Reply: 94

Ask: Read the entry C[C@@H](NC(=O)c1cc(C2=CCC(N3CCC[C@H](O)C3)CC2)c2nncn2c1)c1cccc(C(F)F)c1F (stereo partly shown) and write its reported inhibition at 30 min.
Reply: 92

###

Target: SOS1 and KRAS G12C (Homo sapiens (Human))
Sequence (Q07889 564-1049, stated change not applied): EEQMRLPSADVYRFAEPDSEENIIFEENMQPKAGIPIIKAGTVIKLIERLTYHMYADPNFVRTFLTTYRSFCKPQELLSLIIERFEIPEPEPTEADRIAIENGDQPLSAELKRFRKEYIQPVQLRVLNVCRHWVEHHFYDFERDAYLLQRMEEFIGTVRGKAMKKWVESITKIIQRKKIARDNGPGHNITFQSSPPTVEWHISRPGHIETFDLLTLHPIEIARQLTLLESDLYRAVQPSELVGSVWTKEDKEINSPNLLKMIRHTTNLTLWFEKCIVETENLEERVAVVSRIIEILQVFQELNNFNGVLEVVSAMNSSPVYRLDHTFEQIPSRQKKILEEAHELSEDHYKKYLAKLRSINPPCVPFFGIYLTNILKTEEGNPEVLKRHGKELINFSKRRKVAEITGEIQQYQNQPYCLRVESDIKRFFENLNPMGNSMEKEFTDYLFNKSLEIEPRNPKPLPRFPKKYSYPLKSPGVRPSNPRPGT
Test: KRAS::SOS1 AlphaScreen binding assay (KRAS G12C)
Conditions: average of at least two measurements
Reported property: IC50 (nM)
# value in nM; strip the unit string

The examples below pair each entry with its known result.
C[C@@H](NC(=O)c1cc(N2CC3CCC(C2)N3C)c2nncn2c1)c1cccc(C(F)(F)F)c1F
49
C[C@@H](NC(=O)c1cc(N2CCC(N3CC4CC4C3CO)CC2)c2ncnn2c1)c1cccc(C(F)F)c1F (single isomer, unassigned) [Example cis-E11a]
22
C[C@@H](NC(=O)c1cc(N2CCC(N3CCCC(C)(O)C3)CC2)c2ncnn2c1)c1cccc(C(F)(F)F)c1F (single isomer, unassigned) [Example E47a]
96

Ask: Read the entry C[C@@H](NC(=O)c1cc([C@H]2CC[C@H](N3CCC[C@H](O)C3)CC2)c2ncnn2c1)c1cccc(C(F)(F)F)c1F and write its reported IC50.
Reply: 33

Ask: Read the entry C[C@@H](NC(=O)c1cc(N2CCC(N3CC[C@](C)(O)C3)CC2)c2ncnn2c1)c1cccc(C(F)F)c1F and write its reported IC50.
Reply: 82

Ask: Read the entry C[C@@H](NC(=O)c1cc(N2CCC(N3CCC(O)C(C)(O)C3)CC2)c2ncnn2c1)c1cccc(C(F)(F)F)c1F (stereo partly drawn) [Example cis-E29] and write its reported IC50.
Reply: 56
